# Test system: OVCAR-8 ovarian
# PROCEDURE_DETAILS: NCI tumour cell line growth inhibition, 48 h; in the data active = GI50 below about 0.43 µM; inactive = the rest
Would you mind answering with one of these outcomes? active, inactive

CN1CCN(CC(=O)N2c3cccc4cccc(c34)N(C(=O)CN3CCN(C)CC3)C2c2cn(-c3ccccc3)nc2-c2cccc([N+](=O)[O-])c2)CC1 :: inactive
O=[N+]([O-])c1cc2c(c([N+](=O)[O-])c1)Nc1ccccc1O2 :: inactive
C=C1C(=O)O[C@H]2[C@H]1CC/C(COC(=O)NCc1cc(OC)cc(OC)c1)=C\CC[C@@]1(C)O[C@@H]21 :: inactive
Nc1ccccc1C#Cc1ccccc1C#Cc1cnccn1 :: inactive
Cc1cc2nc(C(Cl)Cl)nc(-c3ccccc3)n2n1 :: inactive
COc1ccc2c(c1)C(=O)c1c-2c(NCCN(C)C)nc2ccccc12 :: inactive
CCN1CCN(c2ccc(Nc3ncc4ccc5ncn(C(C)C)c5c4n3)nc2)CC1 :: active

# evaluate next
Challenge: Call for entry Nc1nc(-c2ccc(Cl)cc2)cc(-c2ccccc2)c1-c1nc2ccccc2o1 :
Response given: inactive

Where these numbers come from: PubChem BioAssay (NCI)
